Data credit: PubChem BioAssay (NCATS)

TEST METHOD NOTES: qHTS of pediatric cancer cell lines to identify multiple opportunities for drug repurposing: Primary screen for RD cells (AID 1347104); note: nearly all actives have a fitted effect of over 55% in size
MEASUREMENT SETUP: RD rhabdomyosarcoma viability, CellTiter-Glo luminescence, 48 h; series mostly up to 46 µM
Records with an inconclusive call do not appear. Calls of active or inactive are those of the source. Calls come from the whole dose curve; as a rule, active = well fitted cell-killing curve with a large enough effect; inconclusive = small, poorly fitted or top-dose-only effect; inactive = flat fitted curve, though single readings scatter.
Classes used: 1 for active, -1 for inactive

>  <MOLECULE>
CC1=CC(=O)c2ccccc2C1=O

>  <ASSIGNED CATEGORY>
1

$$$$
>  <MOLECULE>
C[C@]12C=CC(=O)C=C1CC[C@@H]1[C@@H]2C(=O)C[C@@]2(C)[C@H]1CC[C@]2(O)C(=O)CO

>  <ASSIGNED CATEGORY>
-1

$$$$
>  <MOLECULE>
Cc1noc(NS(=O)(=O)c2ccc(N)cc2)c1C

>  <ASSIGNED CATEGORY>
-1

$$$$
>  <MOLECULE>
CCOC(=O)c1ccc(C#Cc2ccc3c(c2)C(C)(C)CCS3)nc1

>  <ASSIGNED CATEGORY>
-1

$$$$
>  <MOLECULE>
O=NN(CCCl)C(=O)NC1CCCCC1

>  <ASSIGNED CATEGORY>
-1

$$$$
>  <MOLECULE>
CCC(=O)O[C@]1(C(=O)SCF)[C@H](C)C[C@H]2[C@@H]3C[C@H](F)C4=CC(=O)C=C[C@]4(C)[C@@]3(F)[C@@H](O)C[C@@]21C

>  <ASSIGNED CATEGORY>
-1

$$$$
>  <MOLECULE>
Cc1ccc(S(=O)(=O)N[C@@H](Cc2ccccc2)C(=O)CCl)cc1

>  <ASSIGNED CATEGORY>
1

$$$$
>  <MOLECULE>
CCc1cc(C(N)=S)ccn1

>  <ASSIGNED CATEGORY>
-1

$$$$
>  <MOLECULE>
NC(=O)c1cccnc1

>  <ASSIGNED CATEGORY>
-1

$$$$
>  <MOLECULE>
O[C@@H](CNC[C@H](O)[C@H]1CCc2cc(F)ccc2O1)[C@@H]1CCc2cc(F)ccc2O1

>  <ASSIGNED CATEGORY>
1

$$$$
>  <MOLECULE>
COc1cccc(N(C)C(=S)Oc2ccc3c(c2)CCCC3)n1

>  <ASSIGNED CATEGORY>
-1

$$$$
>  <MOLECULE>
Cn1nnc2c(C(N)=O)ncn2c1=O

>  <ASSIGNED CATEGORY>
-1

$$$$
>  <MOLECULE>
COc1ccc2c(c1)c(CC(=O)OCC(=O)O)c(C)n2C(=O)c1ccc(Cl)cc1

>  <ASSIGNED CATEGORY>
-1

$$$$
>  <MOLECULE>
CCCOc1ccc(C(=O)OCCN(CC)CC)cc1N

>  <ASSIGNED CATEGORY>
-1

$$$$
>  <MOLECULE>
OC(Cn1cncn1)(Cn1cncn1)c1ccc(F)cc1F

>  <ASSIGNED CATEGORY>
-1

$$$$
>  <MOLECULE>
COCCCOc1cc(C[C@@H](C[C@H](N)[C@@H](O)C[C@H](C(=O)NCC(C)(C)C(N)=O)C(C)C)C(C)C)ccc1OC

>  <ASSIGNED CATEGORY>
-1

$$$$
>  <MOLECULE>
CN1CCCC(n2nc(Cc3ccc(Cl)cc3)c3ccccc3c2=O)CC1 (centres undefined)

>  <ASSIGNED CATEGORY>
1

$$$$
>  <MOLECULE>
O=S(=O)(c1cccc2cnccc12)N1CCCNCC1

>  <ASSIGNED CATEGORY>
-1

$$$$
>  <MOLECULE>
Cc1nnc(C(=O)NC(C)(C)c2nc(C(=O)NCc3ccc(F)cc3)c(O)c(=O)n2C)o1

>  <ASSIGNED CATEGORY>
-1

$$$$
>  <MOLECULE>
CC(N)C12CC3CC(CC(C3)C1)C2 (centres undefined)

>  <ASSIGNED CATEGORY>
-1

$$$$
>  <MOLECULE>
COc1ncnc(NS(=O)(=O)c2ccc(N)cc2)c1OC

>  <ASSIGNED CATEGORY>
-1

$$$$
>  <MOLECULE>
CCN[C@H]1C[C@H](C)S(=O)(=O)c2sc(S(N)(=O)=O)cc21

>  <ASSIGNED CATEGORY>
-1

$$$$
>  <MOLECULE>
CC(C)C1CCC(C(=O)N[C@H](Cc2ccccc2)C(=O)O)CC1 (some centres undefined)

>  <ASSIGNED CATEGORY>
-1

$$$$
>  <MOLECULE>
Cn1c(=O)c2c(ncn2CC(O)CO)n(C)c1=O (centres undefined)

>  <ASSIGNED CATEGORY>
-1

$$$$

---

TEST METHOD NOTES: Quantitative High-Throughput drug screen in 47 multiple myeloma cell lines against the NCATS MIPE library collection: KMS12PE_JCRB cell viability assay (AID 1918972); note: nearly all actives have a fitted effect of over 30% in size;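 for viability: 100% = DMSO only wells and 0% = wells with media alone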
MEASUREMENT SETUP: KMS12PE myeloma viability, CellTiter-Glo ATP, 48 h; series mostly up to 45.8 µM
Results filed as inconclusive are left out. Activity calls are given as the source filed them. Calls come from the whole dose curve; as a rule, active = well fitted cell-killing curve with a large enough effect; inconclusive = small, poorly fitted or top-dose-only effect, or effect the other way; inactive = no such curve, though single readings can be large or run the other way.
Classes used: YES = active, NO = inactive

>  <SMI>
O=S(=O)(c1cccc2cnccc12)N1CCCNCC1

>  <ASSIGNED CATEGORY>
NO

$$$$
>  <SMI>
CC(C)(C#N)c1cc(Cn2cncn2)cc(C(C)(C)C#N)c1

>  <ASSIGNED CATEGORY>
NO

$$$$
>  <SMI>
CS(=O)(=O)c1ccc([C@@H](O)[C@@H](CO)NC(=O)C(Cl)Cl)cc1

>  <ASSIGNED CATEGORY>
YES

$$$$
>  <SMI>
COC(=O)Nc1nc2ccc(Sc3ccccc3)cc2[nH]1

>  <ASSIGNED CATEGORY>
YES

$$$$
>  <SMI>
COc1cnc(NS(=O)(=O)c2ccc(N)cc2)nc1

>  <ASSIGNED CATEGORY>
YES

$$$$
>  <SMI>
N[C@@H](Cc1ccc(O)c(O)c1)C(=O)O

>  <ASSIGNED CATEGORY>
NO

$$$$

---

System: CP297
TEST METHOD NOTES: qHTS profiling for inhibitors of Plasmodium falciparum proliferation (AID 504749); note: nearly all actives have a fitted effect of over 60% in size
MEASUREMENT SETUP: P. falciparum in erythrocytes, SYBR Green DNA, 72 h; series mostly up to 28.7 µM
Results filed as inconclusive are left out. The source made the active and inactive calls. Calls come from the whole dose curve; as a rule, active = well fitted inhibition curve with a large enough effect; inconclusive = small, poorly fitted or top-dose-only effect; inactive = flat fitted curve, though single readings scatter.
Classes used: YES = active, NO = inactive

>  <COMPOUND>
Cc1cccc(N(C)C(=S)Oc2ccc3ccccc3c2)c1

>  <STUDY SYSTEM>
CP297

>  <ASSIGNED CATEGORY>
NO

$$$$
>  <COMPOUND>
CCn1cc(C(=O)O)c(=O)c2cc(F)c(N3CCN(C)CC3)cc21

>  <STUDY SYSTEM>
CP297

>  <ASSIGNED CATEGORY>
NO

$$$$
>  <COMPOUND>
C1CCC(C(CC2CCCCN2)C2CCCCC2)CC1 (configuration not stated)

>  <STUDY SYSTEM>
CP297

>  <ASSIGNED CATEGORY>
YES

$$$$
>  <COMPOUND>
C#CCN[C@@H]1CCc2ccccc21

>  <STUDY SYSTEM>
CP297

>  <ASSIGNED CATEGORY>
NO

$$$$
>  <COMPOUND>
COc1cc(NCc2ccc3nc(N)nc(N)c3c2C)cc(OC)c1OC

>  <STUDY SYSTEM>
CP297

>  <ASSIGNED CATEGORY>
YES

$$$$
>  <COMPOUND>
O=c1cc(O)c(Cl)c[nH]1

>  <STUDY SYSTEM>
CP297

>  <ASSIGNED CATEGORY>
NO

$$$$
>  <COMPOUND>
COC(=O)Nc1nc2ccc(C(=O)c3ccccc3)cc2[nH]1

>  <STUDY SYSTEM>
CP297

>  <ASSIGNED CATEGORY>
NO

$$$$
>  <COMPOUND>
Cc1noc(NS(=O)(=O)c2ccc(N)cc2)c1C

>  <STUDY SYSTEM>
CP297

>  <ASSIGNED CATEGORY>
NO

$$$$
>  <COMPOUND>
NCCCC(O)(P(=O)(O)O)P(=O)(O)O

>  <STUDY SYSTEM>
CP297

>  <ASSIGNED CATEGORY>
NO

$$$$
>  <COMPOUND>
CC(C)NCC(O)c1ccc(NS(C)(=O)=O)cc1 (configuration not stated)

>  <STUDY SYSTEM>
CP297

>  <ASSIGNED CATEGORY>
NO

$$$$
>  <COMPOUND>
CC(C)Cn1cnc2c(N)nc3ccccc3c21

>  <STUDY SYSTEM>
CP297

>  <ASSIGNED CATEGORY>
NO

$$$$
>  <COMPOUND>
NC(N)=NC(N)=NCCc1ccccc1

>  <STUDY SYSTEM>
CP297

>  <ASSIGNED CATEGORY>
NO

$$$$
>  <COMPOUND>
Cc1ccnc2c1NC(=O)c1cccnc1N2C1CC1

>  <STUDY SYSTEM>
CP297

>  <ASSIGNED CATEGORY>
NO

$$$$
>  <COMPOUND>
CNS(=O)(=O)Cc1ccc2[nH]cc(CCN(C)C)c2c1

>  <STUDY SYSTEM>
CP297

>  <ASSIGNED CATEGORY>
NO

$$$$
>  <COMPOUND>
CC1=CC(=O)c2ccccc2C1=O

>  <STUDY SYSTEM>
CP297

>  <ASSIGNED CATEGORY>
NO

$$$$
>  <COMPOUND>
O=NN(CCCl)C(=O)NC1CCCCC1

>  <STUDY SYSTEM>
CP297

>  <ASSIGNED CATEGORY>
NO

$$$$
>  <COMPOUND>
NC(=O)c1cccnc1

>  <STUDY SYSTEM>
CP297

>  <ASSIGNED CATEGORY>
NO

$$$$
>  <COMPOUND>
CC(C)(Sc1cc(C(C)(C)C)c(O)c(C(C)(C)C)c1)Sc1cc(C(C)(C)C)c(O)c(C(C)(C)C)c1

>  <STUDY SYSTEM>
CP297

>  <ASSIGNED CATEGORY>
NO

$$$$
>  <COMPOUND>
O=S(=O)(O)CCS

>  <STUDY SYSTEM>
CP297

>  <ASSIGNED CATEGORY>
NO

$$$$
>  <COMPOUND>
Cc1cccc(Nc2ccncc2S(=O)(=O)NC(=O)NC(C)C)c1

>  <STUDY SYSTEM>
CP297

>  <ASSIGNED CATEGORY>
NO

$$$$
>  <COMPOUND>
CCC(C)(C)c1ccc(CC(C)CN2C[C@@H](C)O[C@@H](C)C2)cc1 (some centres not stated)

>  <STUDY SYSTEM>
CP297

>  <ASSIGNED CATEGORY>
NO

$$$$
>  <COMPOUND>
C[C@@H](NCCCc1cccc(C(F)(F)F)c1)c1cccc2ccccc12

>  <STUDY SYSTEM>
CP297

>  <ASSIGNED CATEGORY>
YES

$$$$
